- tested system: Carbonic anhydrase 4 (Bos taurus, UniProt Q95323)
- Sequence (Q95323 whole entry): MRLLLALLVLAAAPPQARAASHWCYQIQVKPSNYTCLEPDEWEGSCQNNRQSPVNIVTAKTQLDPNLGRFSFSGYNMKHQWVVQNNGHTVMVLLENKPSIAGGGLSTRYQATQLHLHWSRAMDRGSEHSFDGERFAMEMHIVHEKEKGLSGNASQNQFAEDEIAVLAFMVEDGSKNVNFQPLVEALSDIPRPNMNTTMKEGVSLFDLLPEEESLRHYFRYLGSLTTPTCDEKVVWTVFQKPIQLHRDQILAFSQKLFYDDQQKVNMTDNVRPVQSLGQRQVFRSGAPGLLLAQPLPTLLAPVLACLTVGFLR
Reported values of Ki for individual entries

Example cases with answers are listed next.
molecule: Cc1cc(C)c(S(=O)(=O)NO)c(C)c1
Ki: 156 nM

molecule: COc1ccc(S(=O)(=O)N(Cc2ccccc2[N+](=O)[O-])C(C)C(=O)NO)cc1 (stereo not given)
Ki: > 200 nM

molecule: COc1ccc(S(=O)(=O)NCC(=O)NO)cc1
Ki: 29 nM

molecule: O=S(=O)(NO)C(Cl)(Cl)Cl
Ki: 210 nM

molecule: CC(NS(=O)(=O)c1c(F)c(F)c(F)c(F)c1F)C(=O)NO (stereo not given)
Ki: 10 nM

molecule: COc1ccc(S(=O)(=O)N(CC(=O)NO)Cc2ccccc2[N+](=O)[O-])cc1
Ki: 140 nM

molecule: CC(C)C(NS(=O)(=O)C(F)(F)C(F)(F)C(F)(F)C(F)(F)F)C(=O)NO (stereo not given)
Ki: 20 nM

molecule: O=[N+]([O-])c1ccc(S(=O)(=O)NO)cc1Cl
Ki: 12 nM

Request: I would be grateful if you could share the reported Ki for COc1ccc(S(=O)(=O)NC(C)C(=O)NO)cc1 (stereo not given) .
Result: 30 nM

Request: Entry O=S(=O)(NO)c1c(F)c(F)c(F)c(F)c1F : reported Ki = ?
Result: 13 nM

====

Measured pKi (UniProt Q95323)
By convention, pKi is the negative base-10 log of a molar concentration.

compound: O=C(CN(Cc1ccc([N+](=O)[O-])cc1)S(=O)(=O)C(F)(F)C(F)(F)C(F)(F)C(F)(F)F)NO
pKi: 6.87
//
compound: CN(C)S(=O)(=O)NO
pKi: 6.54
//
compound: O=C(CN(Cc1ccccc1)S(=O)(=O)c1c(F)c(F)c(F)c(F)c1F)NO
pKi: 7.38
//
compound: O=C(O)c1ccccc1S(=O)(=O)NO
pKi: 7.92

Request: Query for UniProt Q95323: what pKi does the record show for O=S(=O)(NO)c1ccc(I)cc1 ?
Result: 7.35

Request: Please provide the recorded pKi for COc1ccc(S(=O)(=O)NO)cc1N , tested on UniProt Q95323.
Result: 6.87

Request: Reported pKi for UniProt Q95323, given O=C(CN(Cc1ccccc1[N+](=O)[O-])S(=O)(=O)c1c(F)c(F)c(F)c(F)c1F)NO ?
Result: 7.31

Request: Value wanted: pKi (UniProt Q95323) of entry CC(C)CC(NS(=O)(=O)C(F)(F)C(F)(F)C(F)(F)C(F)(F)F)C(=O)NO (configuration not stated)
Result: 7.52

Request: Quick check: pKi on UniProt Q95323, item CC(C)CC(C(=O)NO)N(Cc1ccccc1)S(=O)(=O)c1c(F)c(F)c(F)c(F)c1F (configuration not stated) ?
Result: 7.12

Request: Give recorded pKi with UniProt Q95323 for the following compound: COc1ccc(S(=O)(=O)N(Cc2ccccc2)C(CC(C)C)C(=O)NO)cc1 (configuration not stated)
Result: 6.72
